# system.under.test: SPPL2a (Homo sapiens, UniProt Q8TCT8)
# Construct: expressed in transfected cells; host or cells: HEK 293T
# Sequence (Q8TCT8 26-520): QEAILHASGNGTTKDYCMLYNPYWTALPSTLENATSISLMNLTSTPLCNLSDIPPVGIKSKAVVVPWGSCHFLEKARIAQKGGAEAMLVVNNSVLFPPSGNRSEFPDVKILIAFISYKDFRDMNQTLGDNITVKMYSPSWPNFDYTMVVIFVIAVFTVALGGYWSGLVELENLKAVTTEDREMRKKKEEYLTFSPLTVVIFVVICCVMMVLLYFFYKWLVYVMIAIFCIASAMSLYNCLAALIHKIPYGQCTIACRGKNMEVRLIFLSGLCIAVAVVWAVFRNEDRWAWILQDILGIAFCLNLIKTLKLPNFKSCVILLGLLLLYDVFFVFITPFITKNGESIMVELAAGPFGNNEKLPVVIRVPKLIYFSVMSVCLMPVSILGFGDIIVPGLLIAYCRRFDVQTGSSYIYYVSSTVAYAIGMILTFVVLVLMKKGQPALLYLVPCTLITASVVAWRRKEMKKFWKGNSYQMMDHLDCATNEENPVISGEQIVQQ
# assay.notes: FBA/SPPL2a co-transfected HEK 293T cell cleavage assay (Aβ ELISA, Western blot)
# Format: cell-based
# stated.conditions: number in parenthesis in Table 3
Numbered stars: 1 amine (or outer) side, 2 acyl side, 3 side chain; on linkers, the order of the positions; unused ones are H or OH. Square brackets hold non-standard residues; d marks the D form. Peptide text beside a SMILES is read from it. * marks the point of attachment. X1 = CC(N[*:1])C(=O)C(F)(F)C(=O)[*:2]; Boc = CC(C)(C)OC(=O)*
We begin with a simple list: items and their reported rank order of inhibition.
Give the figure only, with no unit attached.

Below, 2 compounds whose answers are already recorded.
• CC[C@H](C)[C@H](NC(=O)[C@@H](NC(=O)OC(C)(C)C)C(C)C)C(=O)NC(C)C(=O)C(F)(F)C(=O)N[C@H](C(=O)N[C@H](C(=O)OC)[C@@H](C)CC)C(C)C (stereo partly shown) [GSI II] (Boc-VI[X1]VI-OMe) = 4
• C[C@H](NC(=O)[C@@H](O)c1cc(F)cc(F)c1)C(=O)N[C@@H]1C(=O)N(C)c2ccccc2-c2ccccc21 = 1

Check the records and state rank order of inhibition for CC(C)C[C@H](NC(=O)[C@H](Cc1ccccc1)C[C@@H](O)[C@H](Cc1ccccc1)NC(=O)OC(C)(C)C)C(=O)N[C@@H](Cc1ccccc1)C(N)=O
3

Query rank order of inhibition for CC(C)C[C@H](NC(=O)OCc1ccccc1)C(=O)N[C@@H](CC(C)C)C(=O)NCC(=O)CNC(=O)[C@H](CC(C)C)NC(=O)[C@H](CC(C)C)NC(=O)OCc1ccccc1 [(Z-LL)2 ketone]
2
